This collection of values is drawn from PubChem BioAssay AID270.

Measured T/C, listed per entry for reference.
- Tested on: BDF1 mice, s.c. Lewis lung carcinoma, T/C %
- Measurement description: NCI In Vivo Anticancer Drug Screen. Data for tumor model Lewis Lung Carcinoma (subcutaneous) in B6D2F1 (BDF1) mice
- Experimental context: endpoint: median survival time; dose: 10.0 mg/kg/injection; schedule: Q01DX009 (ip); vehicle: Klucel (hydroxypropylcellulose) (HPC); higher = longer survival
Records with an inconclusive call do not appear.

Task item: Form field: reported T/C of COc1cc(C=Nc2ccc(-n3ccnc3C)cc2)ccc1N(CCCl)CCCl
Reply: 113 % of control

Task item: Form field: reported T/C of C=C1C(=O)O[C@@H]2[C@H](O)[C@@H](C)[C@@H]3C=CC(=O)[C@@]3(C)[C@H](OC(=O)C=C(C)C)[C@H]12
Reply: 118 % of control

Task item: Form field: reported T/C of O=[N+]([O-])c1cc([N+](=O)[O-])c(Br)cc1Cl
Reply: 105 % of control

Task item: Form field: reported T/C of CS(=O)(=O)OCCCCOS(C)(=O)=O
Reply: 94 % of control

Task item: Form field: reported T/C of CNC(=O)N(C)c1cc(N(C)C)nc(OC)n1
Reply: 115 % of control

Task item: Form field: reported T/C of COc1cc2c(c(OC)c1OC)-c1cc3c(cc1[C@@H](OC(C)=O)[C@@H]1COC(=O)[C@H]1C2)OCO3
Reply: 95 % of control

Task item: Form field: reported T/C of C[C@]12CC[C@H](O)C[C@@]1(O)CC[C@@H]1[C@@H]2CC[C@]2(C)[C@@H](c3ccc(=O)oc3)CC[C@]12O
Reply: 104 % of control

Task item: Form field: reported T/C of O=NN(CCCl)C(=O)Nc1ccc(Br)cc1
Reply: 102 % of control

Task item: Form field: reported T/C of COc1cc2ccc3c4cc5c(cc4c[n+](C)c3c2cc1OC)OCO5
Reply: 99 % of control

---

- Test system: BDF1 mice, s.c. Lewis lung carcinoma, T/C %
- Measurement description: NCI In Vivo Anticancer Drug Screen. Data for tumor model Lewis Lung Carcinoma (subcutaneous) in B6D2F1 (BDF1) mice
- Experimental context: endpoint: mean tumor weight; dose: 40.0 mg/kg/injection; schedule: Q01DX011 (ip); vehicle: other; higher = larger tumour
Results filed as inconclusive are left out.
Measurement type: T/C

Task item: Form field: reported T/C of CCN(CC)Cc1cc(Nc2c3ccccc3nc3cc(Cl)ccc23)ccc1O
Reply: 48 % of control

Task item: Form field: reported T/C of CCN(CC)CC(C)Nc1ccc(C)c2sc3ccccc3c(=O)c12 (stereo not given)
Reply: 68 % of control

Continuing:
Task item: Form field: reported T/C of CSc1ncnc2c1ncn2C1CCCO1 (stereo not given)
Reply: 68 % of control

Task item: Form field: reported T/C of O=C1CN=C(c2ccc[nH]2)c2cc(Cl)ccc2N1
Reply: 112 % of control

Task item: Form field: reported T/C of Nc1nc(N)c(N=O)c(Nc2ccc(Br)cc2)n1
Reply: 70 % of control

---

Measured T/C, listed per entry for reference.
- System: BDF1 mice, s.c. Lewis lung carcinoma, T/C %
- Measurement description: NCI In Vivo Anticancer Drug Screen. Data for tumor model Lewis Lung Carcinoma (subcutaneous) in B6D2F1 (BDF1) mice
- Experimental context: endpoint: mean tumor weight; dose: 55.0 mg/kg/injection; schedule: Q01DX011 (ip); vehicle: other; higher = larger tumour
Records with an inconclusive call do not appear.

Task item: Form field: reported T/C of CN(CCC(=O)c1ccccc1)CCC(=O)c1ccccc1
Reply: 91 % of control

Task item: Form field: reported T/C of O=[N+]([O-])c1cccc([N+](=O)[O-])c1Cl
Reply: 89 % of control

Task item: Form field: reported T/C of N#CC(Cc1ccccc1)C(=O)O (stereo unspecified)
Reply: 80 % of control

Task item: Form field: reported T/C of c1ccc(OP(Oc2ccccc2)Oc2ccccc2)cc1
Reply: 103 % of control

Task item: Form field: reported T/C of OCC(Br)CBr (stereo unspecified)
Reply: 66 % of control

Moving on to the next molecule.
Task item: Form field: reported T/C of CC(=O)[C@H]1CC[C@H]2[C@@H]3CC[C@@H]4CC(=O)CC[C@]4(C)[C@H]3[C@@H]3O[C@@H]3[C@]12C
Reply: 99 % of control

---

- Test system: BDF1 mice, s.c. Lewis lung carcinoma, T/C %
- Measurement description: NCI In Vivo Anticancer Drug Screen. Data for tumor model Lewis Lung Carcinoma (subcutaneous) in B6D2F1 (BDF1) mice
- Experimental context: endpoint: mean tumor weight; dose: 20.0 mg/kg/injection; schedule: Q01DX011 (ip); vehicle: other; higher = larger tumour
Records with an inconclusive call do not appear.
Measured T/C, listed per entry for reference.

Solved entries (count: 3):
Task item: Form field: reported T/C of CSc1ncc(Br)c(Sc2nc(N)nc3nc[nH]c23)n1
Reply: 65 % of control

Task item: Form field: reported T/C of CSc1ncnc2c1ncn2C1CCCO1 (centres undefined)
Reply: 53 % of control

Task item: Form field: reported T/C of CCCC(Sc1nc(N)nc2nc[nH]c12)C(=O)O (centres undefined)
Reply: 17 % of control

Moving on to the next molecule.
Task item: Form field: reported T/C of Nc1nc(N)c(N=O)c(Nc2ccc(Br)cc2)n1
Reply: 114 % of control

---

- Tested on: BDF1 mice, s.c. Lewis lung carcinoma, T/C %
- Measurement description: NCI In Vivo Anticancer Drug Screen. Data for tumor model Lewis Lung Carcinoma (subcutaneous) in B6D2F1 (BDF1) mice
- Experimental context: endpoint: mean tumor weight; dose: 5.0 mg/kg/injection; schedule: Q01DX011 (ip); vehicle: carboxymethylcellulose (CMC); higher = larger tumour
Inconclusive results are not listed.
Measured T/C, listed per entry for reference.

Task item: Form field: reported T/C of O=C(O)C(=O)O.[U]
Reply: 37 % of control

Task item: Form field: reported T/C of CC1OC(O[C@@H]2C=C3CC[C@@H]4[C@H](CC[C@]5(C)[C@@H](c6ccc(=O)oc6)CC[C@]45O)[C@@]3(C)CC2)C(O)C(OC2OC(CO)C(O)C(O)C2O)C1O (stereo partly specified)
Reply: 80 % of control

Task item: Form field: reported T/C of O=C(Nc1ccc(C2=NCCN2)cc1)c1ccc(C(=O)Nc2ccc(C3=NCCN3)cc2)c(Cl)c1
Reply: 73 % of control

Task item: Form field: reported T/C of CC(=O)OC1CC(OC2C(O)CC(OC3C(O)CC(OC4CCC5(C)C(CCC6C5CCC5(C)C(C7=CC(=O)OC7)CCC65O)C4)OC3C)OC2C)OC(C)C1OC1OC(CO)C(O)C(O)C1O (stereo unspecified)
Reply: 32 % of control

Task item: Form field: reported T/C of FCCNC1CCCCC1
Reply: 89 % of control

Task item: Form field: reported T/C of CCCCCC/C=C/[N+]([O-])=NC(COC)C(C)O (stereo unspecified)
Reply: 84 % of control

---

- Test system: BDF1 mice, s.c. Lewis lung carcinoma, T/C %
- Measurement description: NCI In Vivo Anticancer Drug Screen. Data for tumor model Lewis Lung Carcinoma (subcutaneous) in B6D2F1 (BDF1) mice
- Experimental context: endpoint: median survival time; dose: 80.0 mg/kg/injection; schedule: Q01DX001 (ip); vehicle: Klucel (hydroxypropylcellulose) (HPC)
Results filed as inconclusive are left out. How the source made its calls: active means survival T/C of 150% or more; inactive means T/C below 125% in these data.
Entry note: the call must match one of Yes for active, No for inactive

Task item: Field: outcome | Entry: O=NN(CCCl)C(=O)NC1C2CC3CC(C2)CC1C3 (stereo not given)
Reply: No

Task item: Field: outcome | Entry: O=NN(CCCl)C(=O)NC1CCC(O)CC1 (stereo not given)
Reply: No

Task item: Field: outcome | Entry: O=NN(CCCl)C(=O)NC1CCCCC1
Reply: No

Continuing:
Task item: Field: outcome | Entry: O=NN(CCCl)C(=O)NC1CC2CCC1C2 (stereo not given)
Reply: Yes

Task item: Field: outcome | Entry: O=NN(CCCl)C(=O)NCCCl
Reply: Yes

---

- System: BDF1 mice, s.c. Lewis lung carcinoma, T/C %
- Measurement description: NCI In Vivo Anticancer Drug Screen. Data for tumor model Lewis Lung Carcinoma (subcutaneous) in B6D2F1 (BDF1) mice
- Experimental context: endpoint: mean tumor weight; dose: 4.0 mg/kg/injection; schedule: Q01DX011 (ip); vehicle: saline; higher = larger tumour
Results filed as inconclusive are left out.
Measured T/C, listed per entry for reference.

Solved entries (count: 3):
Task item: Param readout = T/C; param system = BDF1 mice, s.c. Lewis lung carcinoma, T/C %; param query = C=C(C)C(=O)O[C@H]1CC2=C[C@@H](C[C@@]3(C)O[C@@H]3[C@H]3OC(=O)C(=C)[C@@H]31)OC2=O ; response: value
Reply: 118 % of control

Task item: Param readout = T/C; param system = BDF1 mice, s.c. Lewis lung carcinoma, T/C %; param query = CC[n+]1ccc(Nc2ccc(NC(=O)c3ccc(Nc4cc[n+](CC)c5ccc(N)cc45)cc3)cc2)cc1 ; response: value
Reply: 33 % of control

Task item: Param readout = T/C; param system = BDF1 mice, s.c. Lewis lung carcinoma, T/C %; param query = N[C@@H](Cc1ccc(N(CCCl)CCCl)cc1)C(=O)O ; response: value
Reply: 21 % of control

Continuing:
Task item: Param readout = T/C; param system = BDF1 mice, s.c. Lewis lung carcinoma, T/C %; param query = CCC[CH2][Sn]1([CH2]CCC)[O]C(=O)C[S]1 ; response: value
Reply: 88 % of control

Task item: Param readout = T/C; param system = BDF1 mice, s.c. Lewis lung carcinoma, T/C %; param query = Cc1cc(O)c2cc3c(O)c(O)ccc3cc2c1 ; response: value
Reply: 36 % of control

Task item: Param readout = T/C; param system = BDF1 mice, s.c. Lewis lung carcinoma, T/C %; param query = O=C(Nc1ccc(C2=NCCN2)cc1)c1ccc(C(=O)Nc2ccc(C3=NCCN3)cc2)c([N+](=O)[O-])c1 ; response: value
Reply: 122 % of control

Task item: Param readout = T/C; param system = BDF1 mice, s.c. Lewis lung carcinoma, T/C %; param query = CC(=O)OC1C=CC(=O)OC1C1OC1C (configuration not stated) ; response: value
Reply: 105 % of control
